Test system: Staphylococcus aureus
protocolText: Antibacterial activity against Staphylococcus aureus Smith ATCC 13709 by CLSI microdilution method
Assay type: functional
measuredEndpoint: MIC (µg/mL)
Numeric only. Scale: µg/mL

Recorded MIC, per entry:
Nc1nc(N)c2ccc(-c3ccccc3)cc2n1: 8
CCOc1ccc(Br)cc1-c1cc2nc(N)nc(N)c2cc1C: 1
COc1ccccc1-c1ccc2c(N)nc(N)nc2c1: 2
Cc1cc2c(N)nc(N)nc2cc1-c1ccc(N)cc1: 1
COc1cc(Cc2cnc(N)nc2N)cc(OC)c1OC [TRIMETHOPRIM]: 1
Cc1cc2c(N)nc(N)nc2cc1-c1ccccc1: 1
CCOc1ccc(Cl)cc1-c1cc2nc(N)nc(N)c2cc1C: 1
CCOc1ccccc1-c1ccc2c(N)nc(N)nc2c1: 4

Exercise: For the compound Cc1ccccc1-c1cc2nc(N)nc(N)c2cc1C , give its reported MIC.
Key: 0.5

Exercise: For the compound COc1cc(Cc2cnc(N)nc2N)c2c(c1OC)OC(C1CC1)C=C2 (configuration not stated) , give its reported MIC.
Key: 0.13

Exercise: For the compound COc1ccc(OC)c(-c2cc3nc(N)nc(N)c3cc2C)c1 , give its reported MIC.
Key: 1

Exercise: For the compound CS(=O)(=O)c1ccc(-c2ccc3c(N)nc(N)nc3c2)cc1 , give its reported MIC.
Key: 8
